Reported pIC50 by item:
Biological target: human plasma kallikrein (Homo sapiens (Human), UniProt P03952)
Sequence (P03952 391-638): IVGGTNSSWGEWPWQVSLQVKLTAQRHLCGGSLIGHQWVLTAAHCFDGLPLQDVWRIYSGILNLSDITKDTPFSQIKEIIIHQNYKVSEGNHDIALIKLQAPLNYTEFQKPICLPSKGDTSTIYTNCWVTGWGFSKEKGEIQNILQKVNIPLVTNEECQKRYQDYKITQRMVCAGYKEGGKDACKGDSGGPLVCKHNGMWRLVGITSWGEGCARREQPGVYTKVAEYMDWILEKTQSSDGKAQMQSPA
Sequence (P03952 20-390 partner): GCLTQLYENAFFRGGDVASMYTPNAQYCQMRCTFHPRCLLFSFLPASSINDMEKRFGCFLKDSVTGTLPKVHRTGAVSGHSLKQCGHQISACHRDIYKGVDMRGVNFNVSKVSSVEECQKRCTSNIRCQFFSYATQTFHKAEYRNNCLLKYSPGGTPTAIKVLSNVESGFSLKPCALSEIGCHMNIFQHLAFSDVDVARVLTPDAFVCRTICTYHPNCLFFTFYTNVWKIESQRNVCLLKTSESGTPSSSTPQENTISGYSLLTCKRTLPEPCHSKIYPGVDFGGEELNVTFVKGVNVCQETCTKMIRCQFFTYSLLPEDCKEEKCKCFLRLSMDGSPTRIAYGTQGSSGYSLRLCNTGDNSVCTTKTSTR
Test: Kallikrein inhibition assay (FLINT) utilizing a quenched AMC peptide substrate
Assay type: biochemical
Settings: 30 min preincubation, kinetic reads over 30 min, Z-Gly-Pro-Arg-AMC substrate 50 μM; read-out: Kallikrein Kin Inh IC50
In plain terms, pIC50 is the concentration in mol/L turned into minus its base-10 logarithm.

// solved cases for pIC50 follow
NC(=O)c1ccc(-c2cnc([C@H]3CC[C@@H]4CC(c5c(-n6cnnn6)ccc(Cl)c5F)=CC(=O)N43)[nH]2)cn1 (single isomer, unassigned); 7.42
COC(=O)Nc1cc(-c2cnc([C@@H]3CC[C@@H]4CC(c5c(-n6cnnn6)ccc(Cl)c5F)=CC(=O)N43)[nH]2)ccn1; 8.49

Proceed to the following item.
Task item: Could you tell me which pIC50 is on file for Nc1ccc(-c2cnc([C@@H]3CC[C@@H]4CC(c5cc(Cl)ccc5-n5cnnn5)=CC(=O)N43)[nH]2)c(F)n1 (single isomer, unassigned) [Example 120] ?
Reply: 7.17

----------
Molecular target: human plasma kallikrein (Homo sapiens (Human), UniProt P03952)
Assay: Kallikrein inhibition assay (FLINT) utilizing a quenched AMC peptide substrate
Assay type: biochemical
Details: 30 min preincubation, kinetic reads over 30 min, Z-Gly-Pro-Arg-AMC substrate 50 μM; read-out: Kallikrein Kin Inh IC50
reported_endpoint: pIC50
Reminder that pIC50 is minus the log10 of a molar concentration.

Solved entries (count: 3):
O=C(Nc1cnc(C(F)(F)F)cc1-c1cnc([C@@H]2CC[C@H]3CC(c4c(-n5cnnn5)ccc(Cl)c4F)=CC(=O)N32)[nH]1)C1CC1; 7.73
O=C(Nc1cnc(C(F)(F)F)cc1-c1cnc([C@@H]2CC[C@@H]3CC(c4c(-n5cnnn5)ccc(Cl)c4F)=CC(=O)N32)[nH]1)C1CC1; 7.83
[2H]c1cc(-c2[nH]c([C@@H]3CC[C@@H]4CC(c5c(-n6cnnn6)ccc(Cl)c5F)=CC(=O)N43)nc2[2H])c(F)nc1N; 8.11

Please turn your attention to the following entry.
Task item: Form field: reported pIC50 of O=C1C=C(c2c(-n3cnnn3)ccc(Cl)c2F)C[C@H]2CC[C@@H](c3ncc(-c4ccnc([C@@H](O)C(F)(F)F)c4)[nH]3)N12 (relative stereo)
Reply: 7.52

----------
In this section, each of the compounds is paired with its reported pIC50.
Target: human plasma kallikrein (Homo sapiens (Human), UniProt P03952)
Assay: Kallikrein inhibition assay (FLINT) utilizing a quenched AMC peptide substrate
Assay type: biochemical
Settings: 30 min preincubation, kinetic reads over 30 min, Z-Gly-Pro-Arg-AMC substrate 50 μM; read-out: Kallikrein Kin Inh IC50
Description: Biological Example 2: Kallikrein Inhibition Assay Utilizing a Quenched AMC Peptide Substrate A fluorescence intensity (FLINT) based assay was used to monitor inhibition of human plasma kallikrein. […] Test compound(s) were run in an 11-point, 3-fold serial dilution with a final top compound concentration of 1 μM. […] The assay was run with kinetic (KIN) reads at 5 min intervals over 30 minutes. […]
The read-out pIC50 is expressed as -log10 of concentration in moles per litre.

COc1ccc(-c2c[nH]c([C@@H]3CCC4CC(c5c(-n6cnnn6)ccc(Cl)c5F)=CC(=O)N43)n2)c(NC(=O)C2CC2)c1 (stereo partly drawn) [Example 276]; 8.92

Task item: Using the record for CO[C@@H]1C[C@@H](c2nc(-c3ccc(N)nc3F)c[nH]2)N2C(=O)C=C(c3c(-n4cnnn4)ccc(Cl)c3F)CC12 (stereo partly drawn) [Example 327] , report its pIC50.
Reply: 8.02

Task item: Can you handle O=C1C=C(c2c(-n3cnnn3)ccc(Cl)c2F)C[C@H]2CC[C@@H](c3ncc(-c4ccc5[nH]c(=O)[nH]c5c4)[nH]3)N12 (single isomer, unassigned) [Example 286] next?
Reply: 8.96

----------
Target: human plasma kallikrein (Homo sapiens (Human), UniProt P03952)
Assay: Kallikrein inhibition assay (FLINT) utilizing a quenched AMC peptide substrate
Assay type: biochemical
Details: 30 min preincubation, kinetic reads over 30 min, Z-Gly-Pro-Arg-AMC substrate 50 μM; read-out: Kallikrein Kin Inh IC50
Method: Biological Example 2: Kallikrein Inhibition Assay Utilizing a Quenched AMC Peptide Substrate A fluorescence intensity (FLINT) based assay was used to monitor inhibition of human plasma kallikrein. […] Test compound(s) were run in an 11-point, 3-fold serial dilution with a final top compound concentration of 1 μM. […] The assay was run with kinetic (KIN) reads at 5 min intervals over 30 minutes. […]
reported_endpoint: IC50 (nM)
A number alone suffices; assume nM.

Please review the entries below; each comes with its answer.
CC1(C)C[C@@H](c2ncc(-c3ccc(N)nc3Cl)[nH]2)N2C(=O)C=C(c3c(-n4cnnn4)ccc(Cl)c3F)CC21 (stereo partly drawn); 5.6
NC(=O)c1ncc(-c2cnc([C@@H]3CC[C@@H]4CC(c5c(-n6cc(Cl)nn6)ccc(Cl)c5F)=CC(=O)N43)[nH]2)s1; 7.8

--- query ---
Task item: What value of IC50 has been reported for the following compound? Cn1c(=O)[nH]c2ccc(-c3cnc([C@@H]4CC[C@H]5CC(c6c(-n7cnnn7)ccc(Cl)c6F)=CC(=O)N54)[nH]3)cc21 (relative stereo)
Reply: 5.6

----------
Listing of entries alongside the reported IC50.
Biological target: human plasma kallikrein (Homo sapiens (Human))
Assay: Kallikrein inhibition assay (FLINT) utilizing a quenched AMC peptide substrate
Type: biochemical
Conditions: 30 min preincubation, kinetic reads over 30 min, Z-Gly-Pro-Arg-AMC substrate 50 μM; read-out: Kallikrein Kin Inh IC50
Kindly provide the numeric value in µM only, without the unit symbol.

Example entries begin here.
CC(C)(O)COc1nccc(-c2cnc([C@@H]3CC[C@@H]4CC(c5c(-n6cnnn6)ccc(Cl)c5F)=CC(=O)N43)[nH]2)c1F; 0.0066
CC(C)(CO)Nc1nccc(-c2cnc([C@@H]3CC[C@@H]4CC(c5cc(Cl)ccc5-n5cnnn5)=CC(=O)N43)[nH]2)c1F; 0.0122

The record that follows has no IC50 shown yet.
Task item: Item under review: COC(=O)Nc1ccc(-c2cnc([C@@H]3CC[C@H]4CC(c5c(-n6cnnn6)ccc(Cl)c5F)=CC(=O)N43)[nH]2)nc1 (relative stereo) . Reported IC50?
Reply: 0.0103
